# Test system: PPARg:RXRa 30nM:10nM, anti-RXR (NR concentration 30 nM, RXRa partner concentration 10 nM)
# ASSAY_EXPLANATION: PBM binding z-score (relative to random genomic background probes); higher = stronger binding; sequences stand for … in GC…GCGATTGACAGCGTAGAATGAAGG
Give PBM binding z-score for every item shown.
Give bare numbers.

Illustrative cases are given below, each with its answer.
RESIDUE_CODES	PBM binding z-score
CGAACTAGGTCACCAGGACATTGAAGAGGTTGGA	4.88
CAAGCTAGGTCAAAGGTCAAAGTCGAGCCAACCA	12
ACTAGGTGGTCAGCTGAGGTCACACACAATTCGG	0.956
TAGCCTAGGTCATGCGGGCCAGCATAGTGTCGGC	0.274
TAGCCTAGGTCAGATCGGGGCAGTATACGCTATA	0.0966
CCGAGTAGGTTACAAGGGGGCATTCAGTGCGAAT	0.773
ATATGTAGGGTAGGGTCATTCAGAAAGTAGGGAA	3.19
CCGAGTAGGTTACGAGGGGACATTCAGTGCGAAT	0.304
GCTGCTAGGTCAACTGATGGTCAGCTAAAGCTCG	0.939
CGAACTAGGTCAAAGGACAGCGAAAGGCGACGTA	9.93

Give PBM binding z-score for each listed item.
1. CGAACTAGGTCAGAACAGTACAGTGAAGGATGAT
2. CGAACTAGGTCAAAGGACAGTGTAAGGCGACGTA
3. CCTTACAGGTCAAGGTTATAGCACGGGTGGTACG

Response:
1: 1.99; 2: 6.9; 3: 1.9

Provide each entry's PBM binding z-score from the list below.
1. TTACAAAGGTGAGCTGAGGTCGTTGATCCAACTC
2. CTATGTAGGTTAAGGGGGACATTCAGTTTGAAAG
3. CGTCAAAGTTCATGGTAACGTAACAGAAAGCAGC

Response:
0.713
7.64
2.39

Give PBM binding z-score for each listed item.
1. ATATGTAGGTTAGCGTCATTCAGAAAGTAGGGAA
2. CAAACTAGGTCACAGAGGTCAAACTCCGTGCGTA

Response:
[1.36, 7.14]

Parameter requested: PBM binding z-score. Apply to each item below.
1. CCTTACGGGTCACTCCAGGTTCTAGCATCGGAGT
2. TCTCGGAGGACACGAAAGGTCAGAACTCGACATC
3. ATAGGTAGGTTAGGGTCATTCAGAAAGTAGGGAA
4. CCTGCTAGTTCAATGGTCAGCTAAAGCAGCTCGC
5. ATATGTAGGTTTGGGTCATTCAGAAAGTAGGGAA
6. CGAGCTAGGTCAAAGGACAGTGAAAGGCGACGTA
7. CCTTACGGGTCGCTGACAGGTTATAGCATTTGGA
8. CGTCTAAGGTCAGCAGGTCAGTGAAAGCGACGTG

Response:
1: 0.999; 2: 2.51; 3: 2.63; 4: -0.764; 5: 1.4; 6: 3.68; 7: -0.323; 8: 1.6

----------
# Test system: RARb homodimer (NR concentration 270 nM)
# ASSAY_EXPLANATION: PBM binding z-score (relative to random genomic background probes); higher = stronger binding; sequences stand for … in GC…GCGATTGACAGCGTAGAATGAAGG
ASSAY_METRIC: PBM binding z-score

For every listed record, write down its PBM binding z-score.
1. CGAACTAGGTCAGAGGACAGTGAAAGGCGACGTA
2. TCGAGGAGGTTACGGGGGCATTCAGGGATGAAGA
3. TAGCCTAGGTCAGATCGGGCGAGTATACGCTATA

Response:
1. 2.41
2. 2.61
3. 2.27

Go through the list and state PBM binding z-score for each entry.
1. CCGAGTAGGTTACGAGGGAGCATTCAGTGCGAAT
2. CGTCGGAGGACAACAGGAGGTCAGAGCTGCCAGA
3. ATATGTAGGTTAGGCTCATTCAGAAAGTAGGGAA
4. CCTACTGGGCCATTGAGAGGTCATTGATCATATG

Response:
1. 0.337
2. 3.63
3. 0.0368
4. 3.78

# return PBM binding z-score for each item in the list
1. CCTACTGGGCCATTCAGAGGTCATTGTTCATATG
2. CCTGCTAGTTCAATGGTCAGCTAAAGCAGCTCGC
3. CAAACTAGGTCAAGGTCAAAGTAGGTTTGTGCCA
4. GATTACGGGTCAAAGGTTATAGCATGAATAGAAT
5. ATCGAAATGTCGTGAGGTGAGTATACAGAAAGGC

Response:
1: 4.14; 2: 1.18; 3: 5.18; 4: 3.44; 5: 0.113
